Procedure summary: Aqueous solubility
Assay type: physicochemical
Measurement conditions: 0.1N HCl, simulated gastric fluid
Experimental endpoint: solubility (mg/mL)
Respond with the bare value in mg/mL.

The molecule N[C@@H]1CCCN(c2c(Br)cnc3[nH]cc(NC(=O)C4CC4)c23)C1 [Form A] showed solubility equal to 49.9
